Recorded IC50, one value per entry.
target: His-tagged human recombinant kinase full-length Akt2 activated by PDK1 (Homo sapiens (Human), UniProt P31751); assay: Akt2 kinase assay (Akt2 TR-FRET assay, Biological Assay 2.0); settings: 10 μM ATP, 1 μM biotinylated peptide substrate, 60 min at 22° C.
Sequence (P31751 whole entry): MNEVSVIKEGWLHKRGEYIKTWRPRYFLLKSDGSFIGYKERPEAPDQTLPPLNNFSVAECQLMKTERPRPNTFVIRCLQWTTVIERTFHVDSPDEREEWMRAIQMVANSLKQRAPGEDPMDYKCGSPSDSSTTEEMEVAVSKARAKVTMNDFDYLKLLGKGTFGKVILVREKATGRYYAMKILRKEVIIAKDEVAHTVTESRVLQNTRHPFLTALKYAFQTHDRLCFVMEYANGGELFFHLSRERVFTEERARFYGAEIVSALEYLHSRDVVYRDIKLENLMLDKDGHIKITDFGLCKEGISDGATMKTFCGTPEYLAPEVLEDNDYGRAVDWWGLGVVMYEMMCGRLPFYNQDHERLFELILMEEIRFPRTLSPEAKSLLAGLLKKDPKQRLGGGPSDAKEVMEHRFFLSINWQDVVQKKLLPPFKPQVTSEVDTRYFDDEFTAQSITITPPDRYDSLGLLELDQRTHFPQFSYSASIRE
Provide only the numeric value, understood in nM.

COMPOUND | RECORDED_METRIC | EXPERIMENTAL_VALUE
Fc1ccc(-c2cn3ccnc3nc2-c2ccc(CN3CCC(c4n[nH]c(-c5ccccn5)n4)CC3)cc2)cc1 [Example 52.1] | IC50 | 32
CNc1c(-c2ccccc2)c(-c2ccc(CN3CC(c4n[nH]c(-c5ccccn5)n4)C3)cc2)nc2nccn12 [Example 58.0] | IC50 | 476
CC(C)Nc1c(-c2ccccc2)c(-c2ccc(CN3CC(c4n[nH]c(-c5ccccn5)n4)C3)cc2)nc2nccn12 [Example 66.0] | IC50 | 53

Entry Cc1cccc(-c2nc(C3CN(Cc4ccc(-c5nc6nc(C)cn6cc5-c5ccccc5)cc4)C3)n[nH]2)n1 [Example 38.0] has what IC50? 16

* * *

molecular target: His-tagged human recombinant kinase full-length Akt1 (Homo sapiens (Human), UniProt P31749); assay: Akt1 kinase assay (Akt1 TR-FRET assay, Biological Assay 1.0); settings: 10 μM ATP, 1 μM biotinylated peptide substrate, 60 min at 22° C.
Sequence (P31749 whole entry): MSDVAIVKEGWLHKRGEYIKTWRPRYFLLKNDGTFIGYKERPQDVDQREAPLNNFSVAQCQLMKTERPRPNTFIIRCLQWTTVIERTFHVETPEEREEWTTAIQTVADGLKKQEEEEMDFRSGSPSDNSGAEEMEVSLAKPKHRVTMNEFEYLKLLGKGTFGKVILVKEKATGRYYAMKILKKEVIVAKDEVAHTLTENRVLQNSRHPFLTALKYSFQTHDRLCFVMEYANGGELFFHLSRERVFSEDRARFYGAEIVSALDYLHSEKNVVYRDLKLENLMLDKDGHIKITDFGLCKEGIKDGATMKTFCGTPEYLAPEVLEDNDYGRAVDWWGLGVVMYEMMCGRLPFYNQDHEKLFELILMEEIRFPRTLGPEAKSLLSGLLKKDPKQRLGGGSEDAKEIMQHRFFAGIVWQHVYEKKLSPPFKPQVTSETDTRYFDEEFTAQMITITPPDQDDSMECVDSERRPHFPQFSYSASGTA
The following molecules are shown together with reported pIC50 values.
Lab note — pIC50 values are minus log10 of concentrations in M.

Record excerpt, results attached:
SMILES_STRING | pIC50
CNc1c(-c2ccccc2)c(-c2ccc(CN3CC(c4n[nH]c(-c5cccc(C)n5)n4)C3)cc2)nc2nc(C)cn12 | 7.96
Cc1nc2nc(-c3ccc(CN4CCC(c5cnc6ccccc6n5)CC4)cc3)c(-c3ccccc3)cn2n1 | 5.36
COC(=O)c1cnn2cc(-c3c(F)cccc3F)c(-c3ccc(CN4CC(c5n[nH]c(-c6ccccn6)n5)C4)cc3)nc12 | 7.85
Cc1cccc(-c2nc(C3CCN(Cc4ccc(-c5nc6ncc(Br)n6cc5-c5ccc(F)cc5)cc4)CC3)n[nH]2)n1 | 7.96
COc1nn2cc(-c3c(F)cccc3F)c(-c3ccc(CN4CC(c5n[nH]c(-c6cccc(C)n6)n5)C4)cc3)nc2c1CO | 8.10

Entry under review: Cc1nc2nc(-c3ccc(CN4CC(c5n[nH]c(-c6ccccn6)n5)C4)cc3)c(-c3ccccc3)cn2c1Br . Reported pIC50? 8.40

For COc1nn2cc(-c3c(F)cccc3F)c(-c3ccc(CN4CCC(c5n[nH]c(-c6cccc(C)n6)n5)CC4)cc3)nc2c1CO then? 7.74

Quick one: Cc1cccc(-c2nc(C3CCN(Cc4ccc(-c5nc6nccn6cc5-c5ccc(F)cc5)cc4)CC3)n[nH]2)n1 8.05

Similarly, Cc1nc2nc(-c3ccc(CN4CC(c5nnc(-c6ccccn6)[nH]5)C4)cc3)c(-c3ccccc3)cn2n1 ? 7.64

Please give the result for Cc1nc2nc(-c3ccc(CN4CCC(c5nc6cccnc6[nH]5)CC4)cc3)c(-c3ccccc3)cn2n1 too. 6.50

Next record, please: N#Cc1ccc2nc(C3CCN(Cc4ccc(-c5nc6nccn6cc5-c5ccccc5)cc4)CC3)[nH]c2c1 7.08

Field entry: Fc1ccc2nc(C3CCN(Cc4ccc(-c5nc6ccnn6cc5-c5ccccc5)cc4)CC3)[nH]c2c1 7.38

Also, Fc1ccc(-c2cn3ccnc3nc2-c2ccc(CN3CCC(c4n[nH]c(-c5cnccn5)n4)CC3)cc2)cc1 please. 6.73

# iterate: Fc1ccc(-c2cn3ccnc3nc2-c2ccc(CN3CCC(c4n[nH]c(-c5ccccn5)n4)CC3)cc2)cc1 8.10

* * *

Molecular target: His-tagged human recombinant kinase full-length Akt1 (Homo sapiens (Human), UniProt P31749)
Test: Akt1 kinase assay (Akt1 TR-FRET assay, Biological Assay 1.0)
Conditions: 10 μM ATP, 1 μM biotinylated peptide substrate, 60 min at 22° C.
Description: Biological Assay 1.0: Akt1 Kinase Assay Akt1 inhibitory activity of compounds of the present invention may be quantified employing the Akt1 TR-FRET assay as described in the following paragraphs. His-tagged human recombinant kinase full-length Akt1 expressed in insect cells was purchased form Invitrogen (part number PV 3599). […]
RECORDED_METRIC: pIC50
Just the number, please; pIC50 means minus log10 of the concentration in mol/L.

Sample answers from the record:
SMILES_STRING | pIC50
Fc1ccc(-c2cn3c(Cl)cnc3nc2-c2ccc(CN3CCC(c4n[nH]c(-c5ccccn5)n4)CC3)cc2)cc1 | 7.60
Nc1ncnc2c1cnn2C1CCN(Cc2ccc(-c3nc4ccnn4cc3-c3ccccc3)cc2)CC1 | 7.60
Cc1cn2c(NC(C)C)c(-c3ccccc3)c(-c3ccc(CN4CC(c5n[nH]c(-c6ccccn6)n5)C4)cc3)nc2n1 | 7.52
Cc1cccc(-c2nc(C3CN(Cc4ccc(-c5nc6nc(C)cn6cc5-c5ccccc5)cc4)C3)n[nH]2)n1 | 7.89
Cc1nc2nc(-c3ccc(CN4CCC(n5ncc6c(N)ncnc65)CC4)cc3)c(-c3ccccc3)cn2n1 | 6.54

// next entry
Any idea what pIC50 was measured for Cc1nc2nc(-c3ccc(CN4CCC(c5n[nH]c(-c6ccccn6)n5)CC4)cc3)c(-c3cc(F)ccc3F)cn2n1 ? 7.22

* * *

Listed here: items and their measured pIC50.
molecular target: His-tagged human recombinant kinase full-length Akt1 (Homo sapiens (Human), UniProt P31749); experiment: Akt1 kinase assay (Akt1 TR-FRET assay, Biological Assay 1.0); details: 10 μM ATP, 1 μM biotinylated peptide substrate, 60 min at 22° C.
Reminder that pIC50 means the negative base-10 logarithm of the concentration expressed in mol/L.

MOLECULE | pIC50
COc1nn2cc(-c3c(F)cccc3F)c(-c3ccc(CN4CC(c5n[nH]c(-c6ccccn6)n5)C4)cc3)nc2c1CO | 7.85
c1ccc(-c2cn3nc(C4CC4)nc3nc2-c2ccc(CN3CCC(c4cnc5ccccc5n4)CC3)cc2)cc1 | 6.61
Fc1ccc(-c2cn3nc(C4CC4)nc3nc2-c2ccc(CN3CCC(c4n[nH]c(-c5cc(Cl)ccn5)n4)CC3)cc2)cc1 | 7.25
c1ccc(-c2cn3ccnc3nc2-c2ccc(CN3CCC(c4nc5cccnc5[nH]4)CC3)cc2)cc1 | 7.25
Cc1cccc(-c2nc(C3CN(Cc4ccc(-c5nc6nc(C7CC7)nn6cc5-c5ccccc5)cc4)C3)n[nH]2)n1 | 8.00

Query molecule follows.
Any idea what its pIC50 is? The molecule is Cc1cccc(-c2nc(C3CCN(Cc4ccc(-c5nc6nc(C)nn6cc5-c5ccc(F)cc5F)cc4)CC3)n[nH]2)n1 7.21

* * *

molecular target: His-tagged human recombinant kinase full-length Akt2 activated by PDK1 (Homo sapiens (Human)); assay: Akt2 kinase assay (Akt2 TR-FRET assay, Biological Assay 2.0); details: 10 μM ATP, 1 μM biotinylated peptide substrate, 60 min at 22° C.
Parameter pIC50: see the listing below.
In plain terms, pIC50 is the concentration in mol/L turned into minus its base-10 logarithm.

SMILES_STRING | EXPERIMENTAL_VALUE
COc1nn2cc(-c3c(F)cccc3F)c(-c3ccc(CN4CC(c5n[nH]c(-c6cccc(C)n6)n5)C4)cc3)nc2c1CO | 7.47
CSc1nc2nc(-c3ccc(CN4CC(c5n[nH]c(-c6cccc(C)n6)n5)C4)cc3)c(-c3ccccc3)cn2n1 | 8.40
CNc1c(-c2ccccc2)c(-c2ccc(CN3CC(c4n[nH]c(-c5ccccn5)n4)C3)cc2)nc2nc(-c3ccccn3)nn12 | 6.84
Clc1cnc2nc(-c3ccc(CN4CC(c5nnc(-c6ccccn6)[nH]5)C4)cc3)c(-c3ccccc3)cn12 | 7.96
COC(=O)c1cnn2cc(-c3c(F)cccc3F)c(-c3ccc(CN4CCC(c5n[nH]c(-c6cccc(C)n6)n5)CC4)cc3)nc12 | 7.09

Next compound, please.
So what does the record say about pIC50 for COC(=O)c1cn2cc(-c3ccccc3)c(-c3ccc(CN4CC(c5n[nH]c(-c6cccc(C)n6)n5)C4)cc3)nc2n1 ? 7.85

* * *

In this section, each of the compounds is paired with its reported IC50.
molecular target: His-tagged human recombinant kinase full-length Akt2 activated by PDK1 (Homo sapiens (Human), UniProt P31751); experiment: Akt2 kinase assay (Akt2 TR-FRET assay, Biological Assay 2.0); assay type: biochemical; conditions: 10 μM ATP, 1 μM biotinylated peptide substrate, 60 min at 22° C.
Report the figure in nM without appending any unit label.

SMILES_STRING | SCALE_UNIT | IC50
Cc1cccc(-c2nc(C3CCN(Cc4ccc(-c5nc6nc(C7CC7)nn6cc5-c5ccc(F)cc5)cc4)CC3)n[nH]2)n1 | nM | 46

Query (compound): Fc1ccc(-c2cn3ccnc3nc2-c2ccc(CN3CCC(c4cnc5ccccc5n4)CC3)cc2)cc1 ; field requested: IC50 2290

What about c1ccc(-c2cn3nc(C4CC4)nc3nc2-c2ccc(CN3CCC(c4cnc5ccccc5n4)CC3)cc2)cc1 ? 273

// repeat for Cc1nc2nc(-c3ccc(CN4CCC(c5n[nH]c(-c6ccccn6)n5)CC4)cc3)c(-c3cc(F)ccc3F)cn2n1 and report 154

What do you get for Cc1cccc(-c2nc(C3CN(Cc4ccc(-c5nc6nc(C)nn6cc5-c5ccc(F)cc5F)cc4)C3)n[nH]2)n1 ? 42
